Test system: 941728-121-R-J1-PDC complex spheroid viability
Experiment: Anticancer human tumor 941728-121-R-J1-PDC patient-derived lung adenocarcinoma cell line growth inhibition [RAS]; active = viability on the fitted dose curve at most 10% of control; inactive = the rest
Settings: second compound 0.03 µM; first compound 1 µM
From the text: RAS pathway inhibitors in Combinations in Complex Spheroids A high-throughput screen of multi-cell type tumor spheroids was designed to identify active combinations of RAS pathway inhibitors and targeted small molecules. Complex spheroids include a stromal component modeled by human endothelial cells (HUVEC) and fibroblasts modeled by human mesenchymal stem cells (MSCs). […] Compounds. […] If the clinical Cmax for an agent had not been determined, the highest concentration tested was 10 microM. […]
// one of yes = active, no = inactive, no free text

C=CC(=O)Nc1cc(Nc2nccc(-c3cn(C)c4ccccc34)n2)c(OC)cc1N(C)CCN(C)C + CCn1c(-c2cc(N3CCN(C)CC3)cnc2C(C)OC)c2c3cc(ccc31)-c1csc(n1)CC(NC(=O)C1CC1C)C(=O)N1CCCC(N1)C(=O)OCC(C)(C)C2 :: no
CC(=O)OC12COC1CC(O)C1(C)C(=O)C(O)C3=C(C)C(OC(=O)C(O)C(NC(=O)OC(C)(C)C)c4ccccc4)CC(O)(C(OC(=O)c4ccccc4)C21)C3(C)C (centres undefined) + CCn1c(-c2cc(N3CCN(C)CC3)cnc2C(C)OC)c2c3cc(ccc31)-c1csc(n1)CC(NC(=O)C1CC1C)C(=O)N1CCCC(N1)C(=O)OCC(C)(C)C2 :: yes
CC(C)NCC(C(=O)N1CCN(c2ncnc3c2C(C)CC3O)CC1)c1ccc(Cl)cc1 (centres undefined) + CCn1c(-c2cccnc2C(C)OC)c2c3cc(ccc31)N1CCOC(CC(NC(=O)C(C(C)C)N(C)C(=O)C3(F)CCN(C(=O)C#CC(C)(C)N(C)C)CC3)C(=O)N3CCCC(N3)C(=O)OCC(C)(C)C2)C1 :: no
C[C@@H](NC(=O)c1ncnc(N)c1Cl)c1ncc(C(=O)Nc2cc(C(F)(F)F)c(Cl)cn2)s1 + CCn1c(-c2cc(N3CCN(C)CC3)cnc2C(C)OC)c2c3cc(ccc31)-c1csc(n1)CC(NC(=O)C1CC1C)C(=O)N1CCCC(N1)C(=O)OCC(C)(C)C2 :: no
CCN1CCN(Cc2ccc(Nc3ncc(F)c(-c4cc(F)c5nc(C)n(C(C)C)c5c4)n3)nc2)CC1 + CCn1c(-c2cc(N3CCN(C)CC3)cnc2C(C)OC)c2c3cc(ccc31)-c1csc(n1)CC(NC(=O)C1CC1C)C(=O)N1CCCC(N1)C(=O)OCC(C)(C)C2 :: yes

Prompt line: Returns: the outcome recorded for CC(Nc1ccc2c(c1)OCCn1cc(N3C(=O)OCC3C(F)F)nc1-2)C(N)=O (centres undefined) + CCn1c(-c2cc(N3CCN(C)CC3)cnc2C(C)OC)c2c3cc(ccc31)-c1csc(n1)CC(NC(=O)C1CC1C)C(=O)N1CCCC(N1)C(=O)OCC(C)(C)C2 in this assay.
Response line: yes

Prompt line: Returns: the outcome recorded for CCC(CC)c1cc(NC2CCC(N)C2)n2nccc2n1 (centres undefined) + CCn1c(-c2cccnc2C(C)OC)c2c3cc(ccc31)N1CCOC(CC(NC(=O)C(C(C)C)N(C)C(=O)C3(F)CCN(C(=O)C#CC(C)(C)N(C)C)CC3)C(=O)N3CCCC(N3)C(=O)OCC(C)(C)C2)C1 in this assay.
Response line: no

Prompt line: Returns: the outcome recorded for Cc1nc(N2CCC3(CC2)COC(C)C3N)c(CO)nc1Sc1ccnc(N)c1Cl (centres undefined) + CCn1c(-c2cc(N3CCN(C)CC3)cnc2C(C)OC)c2c3cc(ccc31)-c1csc(n1)CC(NC(=O)C1CC1C)C(=O)N1CCCC(N1)C(=O)OCC(C)(C)C2 in this assay.
Response line: no

Prompt line: Returns: the outcome recorded for CC(=O)OC12COC1CC(O)C1(C)C(=O)C(O)C3=C(C)C(OC(=O)C(O)C(NC(=O)OC(C)(C)C)c4ccccc4)CC(O)(C(OC(=O)c4ccccc4)C21)C3(C)C (centres undefined) + CCn1c(-c2cccnc2C(C)OC)c2c3cc(ccc31)N1CCOC(CC(NC(=O)C(C(C)C)N(C)C(=O)C3(F)CCN(C(=O)C#CC(C)(C)N(C)C)CC3)C(=O)N3CCCC(N3)C(=O)OCC(C)(C)C2)C1 in this assay.
Response line: no

Prompt line: Returns: the outcome recorded for NC1c2ccccc2OC12CCN(c1cnc3c(N4CCCc5ncccc54)n[nH]c3n1)CC2 (centres undefined) + CCn1c(-c2cc(N3CCN(C)CC3)cnc2C(C)OC)c2c3cc(ccc31)-c1csc(n1)CC(NC(=O)C1CC1C)C(=O)N1CCCC(N1)C(=O)OCC(C)(C)C2 in this assay.
Response line: no

* * *

Tested on: 941728-121-R-J1-PDC complex spheroid viability
Assay: Anticancer human tumor 941728-121-R-J1-PDC cell line growth inhibition [RAS];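 also: spheroids exposed to compounds for 7 days before readout; 100% = DMSO vehicle control viability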
Details: second compound 3.16 µM; first compound 0.1 µM; hits give low values
Give measured viability, T/C for each item. Keep answers brief.
One number for each entry, in %.

Example entries and their recorded answers appear below.
CC(Nc1ccc2c(c1)OCCn1cc(N3C(=O)OCC3C(F)F)nc1-2)C(N)=O (centres undefined) + C#Cc1c(F)ccc2cc(O)cc(-c3ncc4c(N5CC6CCC(C5)N6)nc(OCC56CCCN5CC(F)C6)nc4c3F)c12 :: 28.4
CC(C)NCC(C(=O)N1CCN(c2ncnc3c2C(C)CC3O)CC1)c1ccc(Cl)cc1 (centres undefined) + C#Cc1c(F)ccc2cc(O)cc(-c3ncc4c(N5CC6CCC(C5)N6)nc(OCC56CCCN5CC(F)C6)nc4c3F)c12 :: 30.4
C=CC(=O)Nc1cc(Nc2nccc(-c3cn(C)c4ccccc34)n2)c(OC)cc1N(C)CCN(C)C + C#Cc1c(F)ccc2cc(O)cc(-c3ncc4c(N5CC6CCC(C5)N6)nc(OCC56CCCN5CC(F)C6)nc4c3F)c12 :: 26.1

Continue with the next compound.
Prompt line: Report viability, T/C for NC1c2ccccc2OC12CCN(c1cnc3c(N4CCCc5ncccc54)n[nH]c3n1)CC2 (centres undefined) + C#Cc1c(F)ccc2cc(O)cc(-c3ncc4c(N5CC6CCC(C5)N6)nc(OCC56CCCN5CC(F)C6)nc4c3F)c12 please.
Response line: 24

* * *

System: 941728-121-R-J1-PDC complex spheroid viability
Assay: Anticancer human tumor 941728-121-R-J1-PDC cell line growth inhibition [RAS];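 also: spheroids exposed to compounds for 7 days before readout; 100% = DMSO vehicle control viability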
Settings: second compound 0.0316 µM; first compound 0.1 µM; hits give low values
Label 1 when viability, T/C < 20%; otherwise -1.

C=CC(=O)Nc1cc(Nc2nccc(-c3cn(C)c4ccccc34)n2)c(OC)cc1N(C)CCN(C)C + C#Cc1c(F)ccc2cc(O)cc(-c3ncc4c(N5CC6CCC(C5)N6)nc(OCC56CCCN5CC(F)C6)nc4c3F)c12 :: -1

Prompt line: Confirm or reject: viability, T/C of C[C@@H](NC(=O)c1ncnc(N)c1Cl)c1ncc(C(=O)Nc2cc(C(F)(F)F)c(Cl)cn2)s1 + C=CC(=O)N1CCN(c2nc(OCC3CCCN3C)nc3c(F)c(-c4nc(N)cc(C)c4C(F)(F)F)c(Cl)cc23)C(C)C1 lies strictly below 20%
Response line: -1

Prompt line: Confirm or reject: viability, T/C of CC(Nc1ccc2c(c1)OCCn1cc(N3C(=O)OCC3C(F)F)nc1-2)C(N)=O (stereo not given) + C#Cc1c(F)ccc2cc(O)cc(-c3ncc4c(N5CC6CCC(C5)N6)nc(OCC56CCCN5CC(F)C6)nc4c3F)c12 lies strictly below 20%
Response line: -1

Prompt line: Confirm or reject: viability, T/C of C=CC(=O)N1CCN(c2nc(OCC3CCCN3C)nc3c(F)c(-c4nc(N)cc(C)c4C(F)(F)F)c(Cl)cc23)C(C)C1 (stereo not given) + C#Cc1c(F)ccc2cc(O)cc(-c3ncc4c(N5CC6CCC(C5)N6)nc(OCC56CCCN5CC(F)C6)nc4c3F)c12 lies strictly below 20%
Response line: -1

Prompt line: Confirm or reject: viability, T/C of CC(Nc1ccc2c(c1)OCCn1cc(N3C(=O)OCC3C(F)F)nc1-2)C(N)=O (stereo not given) + C=CC(=O)N1CCN(c2nc(OCC3CCCN3C)nc3c(F)c(-c4nc(N)cc(C)c4C(F)(F)F)c(Cl)cc23)C(C)C1 lies strictly below 20%
Response line: 1

* * *

System: 941728-121-R-J1-PDC complex spheroid viability
Assay: Anticancer human tumor 941728-121-R-J1-PDC cell line growth inhibition [RAS];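 also: spheroids exposed to compounds for 7 days before readout; 100% = DMSO vehicle control viability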
Conditions: second compound 0.01 µM; first compound 0.0316 µM; hits give low values
Text: RAS pathway inhibitors in Combinations in Complex Spheroids A high-throughput screen of multi-cell type tumor spheroids was designed to identify active combinations of RAS pathway inhibitors and targeted small molecules. Complex spheroids include a stromal component modeled by human endothelial cells (HUVEC) and fibroblasts modeled by human mesenchymal stem cells (MSCs). […] Compounds. […] If the clinical Cmax for an agent had not been determined, the highest concentration tested was 10 microM. […]
ENDPOINT NAME: viability, T/C (%)
One number for each entry, in %.

Example entries and their recorded answers appear below.
CC1(O)CCCC1n1c(=O)c(C(F)F)cc2cnc(NC3CCN(S(C)(=O)=O)CC3)nc21 (stereo not given) + C=CC(=O)N1CCN(c2nc(OCC3CCCN3C)nc3c(F)c(-c4nc(N)cc(C)c4C(F)(F)F)c(Cl)cc23)C(C)C1 :: 18.8
CCN1CCN(Cc2ccc(Nc3ncc(F)c(-c4cc(F)c5nc(C)n(C(C)C)c5c4)n3)nc2)CC1 + C=CC(=O)N1CCN(c2nc(OCC3CCCN3C)nc3c(F)c(-c4nc(N)cc(C)c4C(F)(F)F)c(Cl)cc23)C(C)C1 :: 17.5
Nc1ccn(C2OC(CO)C(O)C2(F)F)c(=O)n1 (stereo not given) + C=CC(=O)N1CCN(c2nc(OCC3CCCN3C)nc3c(F)c(-c4nc(N)cc(C)c4C(F)(F)F)c(Cl)cc23)C(C)C1 :: 16.3
C[C@@H](NC(=O)c1ncnc(N)c1Cl)c1ncc(C(=O)Nc2cc(C(F)(F)F)c(Cl)cn2)s1 + C=CC(=O)N1CCN(c2nc(OCC3CCCN3C)nc3c(F)c(-c4nc(N)cc(C)c4C(F)(F)F)c(Cl)cc23)C(C)C1 :: 26.2

Continue with the next compound.
Prompt line: Report viability, T/C for NC1c2ccccc2OC12CCN(c1cnc3c(N4CCCc5ncccc54)n[nH]c3n1)CC2 (stereo not given) + C=CC(=O)N1CCN(c2nc(OCC3CCCN3C)nc3c(F)c(-c4nc(N)cc(C)c4C(F)(F)F)c(Cl)cc23)C(C)C1 please.
Response line: 18.8

Where do the numbers come from? From PubChem BioAssay AID2060896.
